Target: human ether-à-go-go-related gene (hERG) potassium channel (human, UniProt Q12809)
Sequence (Q12809 whole entry, looked up): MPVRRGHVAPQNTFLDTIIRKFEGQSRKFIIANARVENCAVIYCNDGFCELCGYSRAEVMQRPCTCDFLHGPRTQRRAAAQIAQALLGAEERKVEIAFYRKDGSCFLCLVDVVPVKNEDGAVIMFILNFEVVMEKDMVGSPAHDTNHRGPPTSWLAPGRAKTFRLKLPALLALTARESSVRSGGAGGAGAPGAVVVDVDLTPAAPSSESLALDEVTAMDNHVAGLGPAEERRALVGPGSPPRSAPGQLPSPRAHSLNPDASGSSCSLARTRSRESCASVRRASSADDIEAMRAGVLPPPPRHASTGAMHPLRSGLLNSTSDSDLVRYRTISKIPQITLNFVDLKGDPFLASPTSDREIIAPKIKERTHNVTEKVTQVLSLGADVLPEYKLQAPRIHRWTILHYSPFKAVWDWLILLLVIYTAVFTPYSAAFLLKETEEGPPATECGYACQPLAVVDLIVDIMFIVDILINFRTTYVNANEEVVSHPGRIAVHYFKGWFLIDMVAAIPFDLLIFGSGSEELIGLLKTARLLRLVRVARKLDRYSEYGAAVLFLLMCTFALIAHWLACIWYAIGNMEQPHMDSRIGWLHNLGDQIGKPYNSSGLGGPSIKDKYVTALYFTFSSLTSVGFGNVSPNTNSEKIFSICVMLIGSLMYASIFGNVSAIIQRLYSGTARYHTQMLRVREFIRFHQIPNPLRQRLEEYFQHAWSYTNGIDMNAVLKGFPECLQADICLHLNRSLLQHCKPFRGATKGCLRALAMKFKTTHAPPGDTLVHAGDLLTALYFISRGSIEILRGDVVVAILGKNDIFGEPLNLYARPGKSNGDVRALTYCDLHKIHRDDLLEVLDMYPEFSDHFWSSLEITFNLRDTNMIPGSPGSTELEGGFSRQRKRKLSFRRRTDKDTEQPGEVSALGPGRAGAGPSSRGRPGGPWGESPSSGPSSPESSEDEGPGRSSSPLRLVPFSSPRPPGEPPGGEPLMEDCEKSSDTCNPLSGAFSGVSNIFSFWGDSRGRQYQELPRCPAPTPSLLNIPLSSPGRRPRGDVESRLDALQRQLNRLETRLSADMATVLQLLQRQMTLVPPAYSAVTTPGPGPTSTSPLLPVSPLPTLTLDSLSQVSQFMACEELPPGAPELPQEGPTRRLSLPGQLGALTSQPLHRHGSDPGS
Assay: primary screen, population patch clamp on CHO cells stably expressing hERG; higher = less effect of the substance
Out of some 310,000 compounds screened, about 2,200 (0.71%) showed an effect of 50% or more. The effect is printed as a negative number. The entries come from a sample that favours strong results as a whole.
outcome.measure: hERG current change (%, negative = inhibition) at 1uM (%)
Just the number in %, nothing appended.

Some entries whose results are on file:
compound: COc1ccc(S(N)(=O)=O)cc1C(=O)NCCCN1CCN(c2ccccc2OC)CC1.CS(=O)(=O)O
measured.number: 4.07

compound: CCOC(=O)C1(Cc2ccccc2)CCCN(Cc2ccc(OCC)c(CO)c2)C1 (centres unmarked)
measured.number: 4.54

Kindly indicate its recorded hERG current change (%, negative = inhibition) at 1uM. Item: CCCCN=C(C)C1=C(O)CSC1=O
15.8

Specify measured hERG current change (%, negative = inhibition) at 1uM for Cc1cccc(C(=O)NCCCNC(=O)c2ccc(C)nc2)c1 .
10.6

Look up and state reported hERG current change (%, negative = inhibition) at 1uM for O=C(NCCCc1ccccc1)C1CCC(=O)N(Cc2ccc(Cl)cc2)C1 (centres unmarked)
-6.98

Provide hERG current change (%, negative = inhibition) at 1uM value for the following compound: COC(=O)c1cccc(OCC(O)Cn2ccnc2)c1 (centres unmarked)
0.869

Input O=C(NCCc1ccccc1)C1CCC(=O)N(Cc2ccc(Cl)cc2)C1 (centres unmarked) , output reported hERG current change (%, negative = inhibition) at 1uM.
5.85

Recall and state the measured hERG current change (%, negative = inhibition) at 1uM for CCOC(=O)c1c(N2CCN(c3ccccc3)CC2)cc(C)nc1C.O=C([O-])C(=O)[O-] .
-69

###

Target: human ether-à-go-go-related gene (hERG) potassium channel (human)
Experiment: primary screen, population patch clamp on CHO cells stably expressing hERG; higher = less effect of the substance
From the text: Briefly, Chinese hamster ovary (CHO) cells stably expressing the hERG channel were dislodged from tissue culture flasks and dispensed into PPC plates. […] Small molecule effects on hERG current density were quantified by […].
About 2,200 (0.71%) of roughly 310,000 compounds showed an effect of 50% or more. Effects have a minus sign here. The entries come from a sample that favours strong results as a whole.
Measured hERG current change (%, negative = inhibition) at 1uM, listed per entry for reference.
Mention the unit after the number when you answer.

Examples with their reported hERG current change (%, negative = inhibition) at 1uM follow.
compound: CCOC(=O)C1(CCOc2ccccc2)CCN(Cc2cc(OC)c3c(c2)OCO3)CC1
result: -7.24%
//
compound: Br.COc1ccc(C2=CSC3=NCCN23)cc1OC
result: 7.66%
//
compound: CCOC(=O)C1(CCOc2ccccc2)CCN(Cc2cccc(OC)c2O)CC1
result: -54.1%
//
compound: CCCN1CCN(CCCNC(=O)c2cc3c(s2)-c2c(C)cccc2OC3)CC1
result: -67.5%
//
compound: COc1ccc(C2=CSC3=NCCN23)cc1[N+](=O)[O-]
result: 2.48%

Tell us which hERG current change (%, negative = inhibition) at 1uM value is on record for CNc1nnc(-c2ccc(C)cc2)c2ccccc12
-5.45%

Tell me hERG current change (%, negative = inhibition) at 1uM reported for COc1ccc(N/C=C/C(=O)c2ccccc2)cc1
11%

Please report hERG current change (%, negative = inhibition) at 1uM for the following compound: COc1cc(SC)ccc1C(=O)OCC(=O)NC1CCCC1
9.49%

Tell me hERG current change (%, negative = inhibition) at 1uM reported for CCOC(=O)C1(Cc2cccc(OC)c2)CCN(Cc2cc(OC)ccc2OC)CC1
-7.48%

Indicate its recorded hERG current change (%, negative = inhibition) at 1uM; the compound in question is CCCOc1ccc(C2=CSC3=NCCN23)cc1.Cl
-0.939%

Hello, please tell me recorded hERG current change (%, negative = inhibition) at 1uM for this one: Cc1cccc2c1-c1sc(C(=O)NCCCN3CCCC(C)C3)cc1CO2 (centres unmarked)
16.2%

###

Molecular target: human ether-à-go-go-related gene (hERG) potassium channel (human, UniProt Q12809)
Assay: primary screen, population patch clamp on CHO cells stably expressing hERG; higher = less effect of the substance
Hit rate of the full screen: of about 310,000 compounds, about 2,200 (0.71%) showed an effect of 50% or more. The effect is printed as a negative number. Shown is part of a subset that was picked to be rich in strong results.
Assign class by hERG current change (%, negative = inhibition) at 1uM: not lower than 10% means class 1; lower than 10% means class 0.

structure.notation: O=C(O)c1ccc(S(=O)(=O)NCc2ccc3c(c2)OCO3)cc1
target.of.assay: human ether-à-go-go-related gene (hERG) potassium channel (human, UniProt Q12809)
class.name: class 1
//
structure.notation: CCOC(=O)c1ccc(CSc2nnc(N)s2)cc1
target.of.assay: human ether-à-go-go-related gene (hERG) potassium channel (human, UniProt Q12809)
class.name: class 0
//
structure.notation: Cc1cc(C)cc(-c2nnc(SCC(=O)c3ccc4c(c3)OCCO4)o2)c1
target.of.assay: human ether-à-go-go-related gene (hERG) potassium channel (human, UniProt Q12809)
class.name: class 1
//
structure.notation: C=C(C)COc1ccc(-c2nc(N)ncc2Oc2ccc(OC)cc2)c(O)c1
target.of.assay: human ether-à-go-go-related gene (hERG) potassium channel (human, UniProt Q12809)
class.name: class 0

Reported hERG current change (%, negative = inhibition) at 1uM reaches at least 10% for Cc1cc(C)nc(SCC(=O)N(C)CC(=O)Nc2c(Cl)cccc2Cl)n1 ?
class 0

###

# hERG current change (%, negative = inhibition) at 1uM annotations
Biological target: human ether-à-go-go-related gene (hERG) potassium channel (human)
Assay: primary screen, population patch clamp on CHO cells stably expressing hERG; higher = less effect of the substance
Screen size: about 310,000 compounds; about 2,200 (0.71%) showed an effect of 50% or more. The effect is printed as a negative number. Only a selection was taken, and strong results are over-represented in it overall.
Give the value, in units of %, as a plain number.

Before answering, review these 6 worked examples.
compound: CN(C)CCCn1c(SCC(=O)N2CC(=O)Nc3ccccc32)nc2ccccc2c1=O
readout.units: %
measured.number: 9.8

compound: CC(=O)N1CCCc2cc(S(=O)(=O)NC(C(=O)NC(C)c3ccccc3)C(C)C)ccc21 (stereo not drawn)
readout.units: %
measured.number: 1.38

compound: Cc1ccc(S(=O)(=O)N2CCCC2C(=O)NCc2ccco2)cc1 (stereo not drawn)
readout.units: %
measured.number: 8.74

compound: CC(C)N1C(=O)S/C(=C/c2ccc3c(c2)n(C)c(=O)n3C)C1=O
readout.units: %
measured.number: -5.59

compound: COc1cccc(OCC(=O)NNC(=O)c2cccs2)c1
readout.units: %
measured.number: 9.89

compound: S=c1[nH]nc(-c2ccc(Cl)cc2)n1-c1ccc(Cl)cc1
readout.units: %
measured.number: 9.56

Recall and state the measured hERG current change (%, negative = inhibition) at 1uM for CCOc1ccc(C2c3c(oc4cc(C)c(C)cc4c3=O)C(=O)N2CCCN(C)C)cc1OC (stereo not drawn) .
4.1

Report measured hERG current change (%, negative = inhibition) at 1uM; entry is CC(C)N(CCn1c(SCC(=O)N2CC(=O)Nc3ccccc32)nc2ccccc2c1=O)C(C)C
-72.5

Look up hERG current change (%, negative = inhibition) at 1uM of CCOc1ccc(C(=O)NCC(C)NC(=O)c2ccc(OCC)cc2)cc1 (stereo not drawn) and report it.
22.5

###

Quick list: hERG current change (%, negative = inhibition) at 1uM per entry.
Biological target: human ether-à-go-go-related gene (hERG) potassium channel (human)
Assay: primary screen, population patch clamp on CHO cells stably expressing hERG; higher = less effect of the substance
Screen size: about 310,000 compounds; about 2,200 (0.71%) showed an effect of 50% or more. The effect is printed as a negative number. Shown is part of a subset that was picked to be rich in strong results.
Hi! Could you send only the number? It should be in %, unit omitted.

Solved cases (8 shown):
molecule: CC(OC(=O)c1cccs1)C(=O)NC1CCCCC1C (centres unmarked)
readout.units: %
measured.number: -66.1
--
molecule: Cl.OCCN1C2=NCCCN2c2ccccc21
readout.units: %
measured.number: 10.3
--
molecule: Cl.OC(CN1C2=NCCN2c2ccccc21)c1ccccc1 (centres unmarked)
readout.units: %
measured.number: -5.32
--
molecule: Cl.OC(CN1C2=NCCCN2c2ccccc21)c1ccc(Br)cc1 (centres unmarked)
readout.units: %
measured.number: -86.2
--
molecule: CC(OC(=O)c1cccs1)C(=O)NC1CC1 (centres unmarked)
readout.units: %
measured.number: 7.03
--
molecule: O=C(CN1CCN(Cc2ccccc2)CC1)N=Nc1c(O)[nH]c2ccccc12
readout.units: %
measured.number: -37.6
--
molecule: Br.O=C(CN1C2=NCCN2c2ccccc21)c1ccc2c(c1)OCO2
readout.units: %
measured.number: -42.1
--
molecule: Cc1cccc(NC(=O)c2c(F)c(F)c(F)c(F)c2F)c1
readout.units: %
measured.number: -0.482

Return hERG current change (%, negative = inhibition) at 1uM (reported value) for this molecule: CCOC(=O)C1CCN(c2ccc(Cl)nn2)CC1
0.0696

Give hERG current change (%, negative = inhibition) at 1uM for CC(OC(=O)CCC(=O)c1cccs1)C(=O)NC1CCCCC1C (centres unmarked)
0.622

// Input: Cl.c1ccc2c(c1)N1CCCN=C1N2CCN1CCCCC1 . Output its hERG current change (%, negative = inhibition) at 1uM only.
-26.2
